Values were extracted from the DeepSol protein solubility set.

Assay: soluble on expression in E. coli; label from the status in PepcDB or PDB records
Endpoint: soluble on expression in E. coli

MGQERLDNANPTLFDSKPRHRPVTGTERDESVEDPIDSWEIFDLIRDINDPEHPYTLEQLNVVQEELIKVFIDEEETFVKVNFTPTIPHCSMATLIGLAIRVKLLRSLHPKVKVSVSITPGSHSTEESINRQLADKERVAAAMENQGLMHAVNECLRVPE ... not soluble
MNENQLSKRLATVGDLIPRGSRLADIGSDHAYLPVALMLENKLSFAVAGEVVEGPYQSAKTQVSKSNLTDKIIVRLANGLDAIEPEDQIDVISICGMGGTLIRDILEAGRKKNRLTGKERLVLQPNIGEPTLRRWLMANDYSIIDETIVEENRKLYEIIVAEKTEQSVSYTDQELLFGPVLIKKQGPVFTKKWQRELKQRKTVLAQLAKASGEHIEKQAKLQQDQQLIEEVLANGCER ... not soluble
SEKMKLLYVYDPLCGWCYGFGPVVEKIEKNYKGTVDVEIISGGMVMGNRIAPIGNMSEYILDAIPRLQRMTGIEFGQPYITLLKEGSYVTSSEKPSIALCVYKSFTAERAVEYGHAIQTSFYKEGKDLNQDVLYADLATSYGIDRAAFLKRMKDSVYFNQAHEEFKRAAALGVTGFPTLLLKQENGYTALTEGYATYESIEKQLQKHVKAAGTK ... not soluble

---

Experiment: soluble on expression in E. coli; label from the status in PepcDB or PDB records
Endpoint: soluble on expression in E. coli

GMELQDTIFKRQSVRKFKNQDVSDEDILKMIKAAGAAPSGKNIQNWHFVVIKRRDLMEKIADVITKKQQEILVEMDKVSVDKANRFRKFVKNFTLFYLKAPVLVLVFTKVYNPSGYYELELIDAPKETIDKLFIRNPGMQSLGAAIENFTLSAIELGYGSCWLTSQNYAADEIEAVLEAETGFEKGEYFLGAMLALGVPEDNLKSPSKKPVEEICTFIK ... soluble
GPGPAIGEVIGISVNDPRVKEIAEFALKQHAEQNLILAGVDAGQIIKGIPHWDNYYNLILSAKHSPHEFSKFYNVVVLEKASDNSLKLVAFVPLF ... soluble

---

Assay: soluble on expression in E. coli; label from the status in PepcDB or PDB records
Endpoint: soluble on expression in E. coli

MIRAVHSAAIVLLVFSYMAEFSGAASGGYAPASVGTQPVGTSFRDRLADGSPGPVMVVIPPGRFRMGAIFGGGDPDEKPVHEVSIPRAFAIGAYEVTFAEYDRFCEATGREKPKDGRRWFGPLSRNWGRGNKPAMNVSWDDAVAYVKWLSDQTGHRYRLPSEAEWEYAARGGKDTPYWWGGTVGQNKANCKGCGSRWDKKITAPVGSFAPNPYGMFDTAGNVWEWCVDTWHESYDGAPADGSPWIGGEDSRRVQRGGSFGSKPRYIRSSARGRGAQDGRYVYLGFRVVRELLEHHHHHH ... not soluble
MGSDKIHHHHHHMLMESVVSVFDPDLTHLPAVAHRLQFSDPESEVPLHVHRKGQLILALHGAVTCTAGNEIWIVPPNCGVWIPGGVPHSARATANAQLNYLFVEPEAANLPGSSCTLAISPLIREMVERLAEERADYLADSHAARIARVLLDELADMPRERFNLPISSHPKIRAIADALTAEPSDRRTLSDWAKQVAMSERSLARLLIRETGLTFGRWRQQLHLVVALRELASGEAVQNVAAGLGYESVNAFITMFKKALGSTPAQYFAQRHAPTKAGSGEQNRV ... not soluble

---

Assay: soluble on expression in E. coli; label from the status in PepcDB or PDB records
Endpoint: soluble on expression in E. coli

KDAVLVNSELKNIYMKDVINKTNMKITKKIGTQLIFNTNEKTRVWDDDNYNKVISSNVSPAQERRFKEEEEVDIYALIKSYSVICKEQYNYVDGGLIKTSDREKLDSTIYMNIFGEQIPLKEQSKYKITFQNKFVTFQEIDVRLRKSLMSDNRIKLYEHNSICKKGYWGIHYKDNTTKFTDLFTHPNYTDNETIDMSKVSHFDVYLNEEFSKN ... soluble
SQIPASEQETLVRPKPLLLKLLKSVGAQKDTYTMKEVLFYLGQYIMTKRLYDEKQQHIVYCSNDLLGDLFGVPSFSVKEHRKIYTMIYRNLVVVNQQESSDSGTSVSENHHHHHH ... soluble
MKGVNQQKKRLKVMTPLEKYQQDLNQEGFMHDSAQRNAVEHLDDLYRRFLELKVPEEPAKKSWKRFFKKEKPQKLTPEKGLYFWGGVGRGKTYLVDTFYDALPTERKMRIHFHRFMQRVHDELGELKQQSDPLLIVADKFKQETDIICFDEFFVSDITDAMILATLLEALFARGITLVATSNILPQDLYRNGLQRARFLPAISLIEQHCDIINVDSGVDYRLRTLEQAEIYHYPLDSDAETNMKGYFLQLASGCDYESTQIEINHRLIEVKAEGDGVVHFDFASLCESARSQHDYIELSRLYHTVLLSNVKIMGEVNDDAARRFIAMVDEFYERNVKLIISAEVDLTSIYQKGRLTFEFQRCQSRLIEMQSHEYLSKEHLSLEHHHHHH ... not soluble
MGSDKIHHHHHHMTHDTSPIHRTIELPDELLVGAIDTHIHSGPWLKSCPGRLDPFQIAEQAKQAGMRAVVFYDHTFGNSAGTSWMVRRSVPGIDVYGGIILTTNFGGMNPRAVKTALHYGDGAKFVHFGTHCTYHMASREGSYVDGKPVPFKDLYPKFAEQELARAIRIPLDGPVPGELEEILGLVAGHPDVYLNTGHISPGEVMRLAELAERFGIRKMIVAHPARAWLSTAQQKDLSARGFFLEGSVSDWLFHRGLPRTNYYVEREYADEIAGIANEPQFQGVVQWASQLREVGLANVVLGTDYGIGSCPAPREGMRLLISTLLDLQFSLAEIELLTRRNPARLLGLE ... not soluble
MGSDKIHHHHHHMWSLMHPYLPATVRKWTNLNLSNHSFSLNTMKTKRLSEFFPGVRSYYIVGEIAIITPKRVNVDYNLVAEKIMQAHPKIKAVYLKKKVKGELRTNELEFLSGERISSTIYKENGVLFYVDINKVYVNPSLSGDRLKNLELVEEGSTVLDAFTGYGAIALNIAHKKRVYVVAGDINIDGLYMLKKSLSLNKIKGMIDIVQYDAHHLPFRDKVFKLSFGDNPTLIIDFKEELCRVSENVVFYILCESEDKANSSLGRTSWIKINDYSKNLFIFKGLVRC ... not soluble

Task: Please report soluble on expression in E. coli for the following sequence: MDYNVKDFGALGDGVSDDRASIQAAIDAAYAAGGGTVYLPAGEYRVSAAGEPGDGCLMLKDGVYLAGAGMGETVIKLIDGSDQKITGMVRSAYGEETSNFGMRDLTLDGNRDNTSGKVDGWFNGYIPGGDGADRDVTIERVEVREMSGYGFDPHEQTINLTIRDSVAHDNGLDGFVADYLVDSVFENNVAYANDRHGFNVVTSTHDFVMTNNVAYGNGSSGLVVQRGLEDLALPSNILIDGGAYYDNAREGVLLKMTSDITLQNADIHGNGSSGVRVYGAQDVQILDNQIHDNAQAAAVPEVLLQSFDDTAGASGTYYTTLNTRIEGNTISGSANSTYGIQERNDGTDYSSLIDNDIAGVQQPIQLYGPHSTVSGEP
Output: soluble

Task: Return value of soluble on expression in E. coli for input MGSDKIHHHHHHMPKRIVKLEAGYNCRDLGGYVSQDGRTVKWGRLYRSGSLSHLTKADQAELARRKIVVDCDLRSRHEQDNFPDKLWPGSKLVDAHFYSESGDEEEEAEAAWEKYSSKLPKLSYLAMVYQQNLVVPRTGLVMREIFKEMLDLEDDEALLYHCSMGKDRTGMVSVIVLMALGLEDREILRDYLLSREYSRDWDEADENDRLGKQIAKMNQTQVSQTAFYGITETIRQMWGGFDRYFASLGFDQGDLDRLRDKFLE , no commentary.
Output: not soluble

Task: State, in one line, measured soluble on expression in E. coli of MPLTPLDIHNKEFTRGFRGYDEDEVNEFLDQIIKDYEAVLREKKELFDRVTDLDEKLEHFQNIEETLNKSILVAQESAEEVRRNAQKEAQLIVKEAEKNADRIINDALAKSRKIMLEMEELKKQASVYKMRFKMLIEAQLEMLNTDDWDEVTEDSGDERSEEYAE
Output: not soluble

---

Test: soluble on expression in E. coli; label from the status in PepcDB or PDB records
Endpoint: soluble on expression in E. coli

Below, 4 sequences whose answers are already recorded.
MEINVDQINLMTKKGLRGDLKNFESVLDFLEKYGNATIVKYGMYSLVFQIAMNKFIDISKECEECGGKCCQIGYPVPVYGFDYEELRNKLSMEDLKKLEKVDSNLFLLRRPCKFQKGWYCSIHKFKPYACLSYPFATEDEQRDAINSYDGKGIPDLEHHHHHH ... not soluble
MGSDKIHHHHHHMAQQKDTKKITVFTSTYNRAYILPKLYESLKLQTCKDFEWLVVDDGSEDETSELFDKWLEEDVIEIAYFKKKNGGKHRAINFAASKAQGQLFFIVDSDDYLTLTAVEIICKEWEKVENKKQSAGLCFRKICYNTGKMIGADFPVSPIDASSLTICYKWKIYEDKAEVFKTELIRRFPFPEIEGEKFISEAIVWNKISVCDSPLLRCVNTGIYMCEYLPDGLTANFIKLMKRNPKGGILYYKSLFNLSCIRKNPIDILKISLRLSQCIIYSFLRCFGSYL ... not soluble
IYAYVPLRTPENTGHLALLDGQLELAYQPIVEVAGSDTAQYQVLLRLRKADGNLLSAGLVIPAAEAAGRIMELDQQVIEQALDILKLHQDTNQQLRLFVSQSVRTLIHEGFSDWIIKNLRERNVNGTGLVIDLRLQDAVIHAIPLKQLCKELLKHNVKFCLSQFESNSEATVLFSELPLNFVRLSQHFGDAHNHPERQKELPLLIEQAHEHNLHVIGQCIEDAQAATFMWMNGVDLIQGNLFQNV ... not soluble
GPGSMNYEGHLKGHRGWVTSLACPQQAGSYIKVVSTSRDGTAISWKANPDRHSVDSDYGLPNHRLEGHTGFVSCVSLAHATDYALTASWDRSIRMWDLRNGQCQRKFLKHTKDVLAVAFSPDDRLIVSAGRDNVIRVWNVAGECMHEFLRDGHEDWVSSICFSPSLEHPIVVSGSWDNTIKVWNVNGGKCERTLKGHSNYVSTVTVSPDGSLCASGGKDGAALLWDLSTGEQLFKINVESPINQIAFSPNRFWMCVATERSLSVYDLESKAVIAELTPDGAKPSECISIAWSADGNTLYSGHKDNLIRVWSISDAE ... soluble

Task: Please supply the value of reported soluble on expression in E. coli for the item MGSDKIHHHHHHMLHYTKEDLLELGAEITTREIYQQPDVWREAFEFYQAKREEIAAFLQEIADKHDYIKVILTGAGTSAYVGDTLLPYFKEVYDERKWNFNAIATTDIVANPATYLKKDVATVLVSFARSGNSPESLATVDLAKSLVDELYQVTITCAADGKLALQAHGDDRNLLLLQPAVSNDAGFAMTSSFTSMMLTTLLVFDPTEFAVKSERFEVVSSLARKVLDKAEDVKELVDLDFNRVIYLGAGPFFGLAHEAQLKILELTAGQVATMYESPVGFRHGPKSLINDNTVVLVFGTTTDYTRKYDLDLVREVAGDQIARRVVLLSDQAFGLENVKEVALGCGGVLNDIYRVFPYIVYAQLFALLTSLKVENKPDTPSPTGTVNRVVQGVIIHEYQK
Output: not soluble

Task: Give the value of soluble on expression in E. coli reported for the following: MGSSHHHHHHSQDPMLSKDIIKLLNEQVNKEMNSSNLYMSMSSWCYTHSLDGAGLFLFDHAAEEYEHAKKLIIFLNENNVPVQLTSISAPEHKFEGLTQIFQKAYEHEQHISESINNIVDHAIKSKDHATFNFLQWYVAEQHEEEVLFKDILDKIELIGNENHGLYLADQYVKGIAKSRKS
Output: soluble
